These measurements were taken from patent EP4703386A1.

ASSAYED_TARGET: T1, CD276 protein on tumor target cells (NCI-H292, SK-OV-3) (human, UniProt Q5ZPR3 29-534)
T1 construct: whole, on cells; for SK-OV-3 it is implied by the use of CD276-targeted BiTE and CAR; also called B7-H3; CD276-expressing target cells
T1 sequence (looked up): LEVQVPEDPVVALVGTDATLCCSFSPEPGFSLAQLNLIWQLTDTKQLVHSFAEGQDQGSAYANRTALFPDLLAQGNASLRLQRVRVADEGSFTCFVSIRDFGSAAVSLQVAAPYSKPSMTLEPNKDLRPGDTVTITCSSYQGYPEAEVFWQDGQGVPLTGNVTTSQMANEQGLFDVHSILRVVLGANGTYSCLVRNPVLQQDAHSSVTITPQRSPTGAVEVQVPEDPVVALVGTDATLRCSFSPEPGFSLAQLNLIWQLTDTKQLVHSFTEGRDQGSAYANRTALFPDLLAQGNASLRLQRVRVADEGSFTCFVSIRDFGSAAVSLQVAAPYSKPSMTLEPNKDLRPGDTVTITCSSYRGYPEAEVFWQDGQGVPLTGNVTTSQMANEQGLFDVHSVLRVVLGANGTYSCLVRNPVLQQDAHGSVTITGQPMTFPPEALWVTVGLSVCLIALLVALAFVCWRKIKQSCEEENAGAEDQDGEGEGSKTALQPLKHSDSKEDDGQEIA
TEST_DESCRIPTION: flow cytometry on NCI-H292 cells, IgG-Fc-PE second antibody
MEASUREMENT_LABEL: binding result

>>> experimental_result("Hu012-21 (antibody, IgG1, V domains shown, Full-length IgG1 (AbVec-hIgG1, AbVec-hIgKappa); also called candidate antibody Hu012-21) VH: EVQLVQSGGGVVQPGRSLRLSCAASGFTFSSYGMHWVRQAPGKGLEWVAVISYDGSNKYYADSVKGRFTISRDNSKDTLYLQMNSLRAEDTAVYYCAKDKLMGWHNYGMDVWGQGTTVTVSS VL: AIQLTQSPSSLSASVGDRVTITCRASQSINSYLNWYQQKPGKAPKVLIYAASNLQSGVPSRFSGSGSGTDFTLTISSLQPEDFATYYCQQSYSTPPTFGQGTKLEIK")
"binds"
